Exercise: for every item that follows, state its recorded EC.
System: Paracentrotus lividus
Assay: Antimitotic activity against Paracentrotus lividus embryo assessed as concentration required to cause 100% cleavage alteration after 2.5 to 6 hrs
Type: functional
Give bare numbers, in nM.

Some solved cases for reference:
{"Compound": "COc1ccc2c(c1)OC1=C(C(=O)OC1)C2c1cc(OC)c2c(c1)OCCO2 (centres undefined)", "Observed value": 10}
{"Compound": "COc1ccc2c(c1)OC1=C(C(=O)OC1)C2c1cc(OC)c2c(c1)OCO2 (centres undefined)", "Observed value": 2}
{"Compound": "COc1ccc2c(c1)OC1=C(C(=O)OC1)C2c1cc(OC)c2c(c1OC)OCO2 (centres undefined)", "Observed value": 100}

Next compound, please.
Input: Query for Paracentrotus lividus: what EC does the record show for COc1ccc2c(c1)C(c1cc(OC)c3c(c1)OCO3)C1=C(COC1=O)O2 (centres undefined) ?
Output: 50
